- Experiment Summary: Clearance in dog at 0.5 mg/kg, po
- Assay type: ADME, organism-based, Canis lupus familiaris
- Set-up: dose 0.5 mg/kg, route oral
- Condition Details: in vivo
Recorded Metric: CL/F (mL/min/kg)
Respond numerically; units are mL/min/kg and should not be typed.

Please look at this compound and report its CL/F: Cl.O=C(O)[C@@H]1C[C@H](Cc2cccc(F)c2)CN1
0.4

---

- Experiment Summary: Plasma protein binding in human
- Assay type: ADME, cell-free
- Condition Details: read-out: PPB (converted)
Recorded Metric: fraction unbound
Output: the number by itself.

Please look at this compound and report its fraction unbound: O=C(O)[C@@H]1C[C@H](COc2cccc(F)c2)CN1
0.32

Supply fraction unbound value. Item: Cl.O=C(O)[C@@H]1C[C@H](Cc2cccc(F)c2)CN1
0.73

---

- Experiment Summary: Oral bioavailability in rat
- Format: ADME, organism-based
- Condition Details: in vivo
Recorded Metric: bioavailability
Reply with a number, then the unit it belongs to.

Given the molecule Cl.O=C(O)[C@@H]1C[C@H](Cc2cccc(F)c2)CN1 , write its reported bioavailability.
89%

Could you please provide reported bioavailability for O=C(O)[C@@H]1C[C@H](Oc2cccc(Cl)c2)CN1 ? Thanks!
100%

---

- Species on record: Rattus norvegicus
- Experiment Summary: Unbound clearance in rat urine
- Assay type: ADME, organism-based
- Condition Details: in vivo
Recorded Metric: CL (mL/min/kg)
Provide the reading as a plain figure in mL/min/kg.

Complete the entry with CL for O=C(O)[C@@H]1C[C@H](COc2cccc(F)c2)CN1
7

Specify CL for O=C(O)[C@@H]1C[C@H](Oc2cccc(Cl)c2)CN1 and stop.
41

Fill in CL for record O=C(O)[C@@H]1C[C@H](OCc2ccc(Cl)cc2)CN1
26

Output CL of Cl.O=C(O)[C@@H]1C[C@H](Cc2cccc(F)c2)CN1
6

Give the measured CL for O=C(O)[C@@H]1C[C@H](Cc2ccccc2Cl)CN1
15

---

- Experiment Summary: Plasma protein binding in rat
- Assay type: ADME, cell-free
- Condition Details: read-out: PPB (converted)
Sorting guide: entries reporting fraction unbound beneath 0.7 go in the True pile, the rest go in the False pile.

Does O=C(O)[C@@H]1C[C@H](COc2cccc(F)c2)CN1 have fraction unbound strictly under 0.7?
False

Lab log: compare recorded fraction unbound with 0.7; is it strictly lower for O=C(O)[C@@H]1C[C@H](Oc2cccc(Cl)c2)CN1 ?
True

Field: below-cutoff. Rule: recorded fraction unbound strictly less than 0.7. Subject: Cl.O=C(O)[C@@H]1C[C@H](Cc2cccc(F)c2)CN1
False

Is the reported fraction unbound for O=C(O)[C@@H]1C[C@H](OCc2ccc(Cl)cc2)CN1 strictly below 0.7?
True

# strict comparison: is reported fraction unbound < 0.7? input = O=C(O)[C@@H]1C[C@H](Cc2ccccc2Cl)CN1
True

---

- Experiment Summary: Displacement of [3H]gabapentin from Voltage-dependent calcium channel subunit alpha-2/delta in pig cerebral cortex
- Assay type: tissue-based, Sus scrofa
Mark YES only when IC50 stays strictly below 20 nM. Values equal to the cut-off are NO.

Take the compound O=C(O)[C@H]1C[C@@H](Cc2cccc(F)c2)CN1 and say whether its IC50 is less than 20 nM.
NO

Please let me know if O=C(O)[C@@H]1C[C@H](Oc2cccc(Cl)c2)CN1 shows IC50 below 20 nM.
YES

Threshold test, IC50 < 20 nM: COc1cccc(C[C@@H]2CN[C@H](C(=O)O)C2)c1
NO

In the record for O=C(O)[C@@H]1C[C@H](Cc2cccc(OC(F)(F)F)c2)CN1 , is IC50 less than 20 nM?
YES

Lab log: compare recorded IC50 with 20 nM; is it strictly lower for CCc1cccc(C[C@@H]2CN[C@H](C(=O)O)C2)c1 ?
NO

For O=C(O)[C@@H]1C[C@H](Cc2ccccc2F)CN1 , is the recorded IC50 below the cut-off of 20 nM?
NO

Given the entry O=C(O)[C@@H]1C[C@H](Cc2ccccc2Cl)CN1 , would its reported IC50 be below 20 nM?
YES

Dear reviewer, please state whether O=C(O)[C@@H]1C[C@H](OCc2ccc(Cl)cc2)CN1 has IC50 strictly beneath 20 nM.
NO

Is it true that IC50 reported for O=C(O)[C@@H]1C[C@H](Cc2ccccc2)CN1 is less than 20 nM?
NO

Given Cl.O=C(O)[C@@H]1C[C@H](Cc2cccc(F)c2)CN1 , is recorded IC50 strictly lower than 20 nM?
YES

I'd appreciate it if you could check whether O=C(O)[C@@H]1C[C@H](COc2cccc(F)c2)CN1 has IC50 smaller than 20 nM.
NO

Please check: IC50 for O=C(O)[C@@H]1C[C@H](Cc2cc(F)ccc2F)CN1 , strictly under 20 nM or not?
YES

---

- Experiment Summary: Displacement of [3H]gabapentin from Voltage-dependent calcium channel subunit alpha-2/delta in pig cerebral cortex
- Assay type: tissue-based, Sus scrofa
Recorded Metric: pIC50
On this scale, pIC50 is minus log10 of a concentration expressed in M (mol/L).

Give the reported pIC50 for this compound. O=C(O)[C@@H]1C[C@H](Cc2cc(Cl)ccc2Cl)CN1
8.30

Please report pIC50 for the following compound: O=C(O)[C@@H]1C[C@H](Cc2cccc(F)c2F)CN1
7.57

Dear colleague, please send me the reported pIC50 for O=C(O)[C@@H]1C[C@H](COc2cccc(Cl)c2)CN1 when you can.
7.89

---

- Experiment Summary: Half life in rat
- Assay type: ADME, organism-based
- Condition Details: in vivo
Recorded Metric: half-life (min)
Record the value in min, omitting the unit from your answer.

Please report half-life for the following compound: Cl.O=C(O)[C@@H]1C[C@H](Cc2cccc(F)c2)CN1
96

For the compound O=C(O)[C@@H]1C[C@H](Cc2ccccc2Cl)CN1 , give its reported half-life.
30

State, in one line, measured half-life of O=C(O)[C@@H]1C[C@H](Oc2cccc(Cl)c2)CN1
24

# return recorded half-life for entry O=C(O)[C@@H]1C[C@H](COc2cccc(F)c2)CN1
84

---

- Experiment Summary: Ratio of drug level in CSF to plasma in rat
- Format: ADME
Recorded Metric: Kp
Please respond with just the number, no unit label.

Give a short answer stating reported Kp for Cl.O=C(O)[C@@H]1C[C@H](Cc2cccc(F)c2)CN1 .
0.004

---

- Experiment Summary: Dissociation constant, pKa of the compound
- Format: physicochemical
Recorded Metric: pKa
The answer should be a number; do not append a unit.

Fill in pKa for record Cl.O=C(O)[C@@H]1C[C@H](Cc2cccc(F)c2)CN1
10.1

Please indicate pKa recorded for O=C(O)[C@@H]1C[C@H](Oc2cccc(Cl)c2)CN1
8.9
